biological target: Voltage-dependent N-type calcium channel subunit alpha-1B (Homo sapiens); assay: disruptors of CaV2.2 binding to Mint1 – biochemical, HTRF (AID 2073); details: HTRF protein-protein interaction, Mint1-CaV2.2; at 20 µM; hits give high values
In all, about 290,000 compounds went through this assay and about 570 (0.2%) were called active. Inconclusive results (about 1%) are left out. The full list was thinned out, with actives kept by preference.
Measurement Label: inhibition (%)
Output spec: scalar in %, unitless text.

Worked cases, inhibition given:
O=C(NN1C(=O)C2CC=C(Cl)CC2C1=O)c1ccncc1 (stereo unspecified) | 61.5
O=C(NN1C(=O)C2C3C=CC(C3)C2C1=O)c1ccncc1 (stereo unspecified) | 5.7
CCCN1Cc2cccc(C(=O)NC(CC(=O)OCC)c3ccc(OC(C)C)cc3)c2C1=O (stereo unspecified) | -3.9

[in] Which inhibition is reported for this compound? COc1cc(CNc2ccc3[nH]c(=O)[nH]c3c2)ccc1OCC(=O)NC(C)(C)C
[out] 43.9

[in] Which inhibition is reported for this compound? NCCOc1ccc(C2CCCCC2)cc1
[out] -11.4

[in] Which inhibition is reported for this compound? CCn1c(SCC(=O)NNC(=O)c2ccc(C)cc2)nnc1C1CC1
[out] 7.6

* * *

biological target: Voltage-dependent N-type calcium channel subunit alpha-1B (Homo sapiens); test: disruptors of CaV2.2 binding to Mint1 – biochemical, HTRF (AID 2073); settings: HTRF protein-protein interaction, Mint1-CaV2.2; at 20 µM; hits give high values
Out of some 290,000 compounds screened, about 570 (0.2%) were called active. Another 1% or so got no clear call; they are omitted. The entries come from a sample that favours actives as a whole.
Measurement Label: inhibition (%)
Output spec: scalar in %, unitless text.

O=C(NC1=C(Nc2ccc(Cl)cc2)C(=O)c2ccccc2C1=O)c1ccccc1 | -10.9
O=C(CCNC(=O)N1CCn2c1nc1ccccc12)NCc1ccccc1 | -1.3
N/C(Cc1ccc(Cl)cc1Cl)=N\OC(=O)c1ccc(Br)o1 | 7.7

[in] Which inhibition is reported for this compound? O=C1C(Cl)=C(NC(=O)c2ccccc2)C(=O)C(Cl)=C1NC(=O)c1ccccc1
[out] 81.8

[in] Which inhibition is reported for this compound? O=C(O)CC/C(=C\c1ccc(Cl)c([N+](=O)[O-])c1)c1nc2ccccc2s1
[out] 6.1

[in] Which inhibition is reported for this compound? O=C(Nc1ccccc1Cl)c1ccccc1
[out] 23.6

* * *

target: Voltage-dependent N-type calcium channel subunit alpha-1B (Homo sapiens); experiment: disruptors of CaV2.2 binding to Mint1 – biochemical, HTRF (AID 2073); details: HTRF protein-protein interaction, Mint1-CaV2.2; at 20 µM; hits give high values
In all, about 290,000 compounds went through this assay and about 570 (0.2%) were called active. Not shown: some 1% with an inconclusive outcome. The list comes from a sample in which actives are over-represented; it also holds close analogues and randomly drawn compounds.
Measurement Label: inhibition (%)
Output spec: scalar in %, unitless text.

COc1ccccc1NC(=O)c1c(NC(=O)CCC(=O)O)sc2c1CCCCC2 | 25

[in] Which inhibition is reported for this compound? COc1ccc(NC(=O)c2c(NC(=O)CCC(=O)O)sc3c2CCCCC3)cc1
[out] 63.8

[in] Which inhibition is reported for this compound? COc1ccc(NS(=O)(=O)c2ccc3c(c2)[C@H]2C=CC[C@H]2[C@@H](c2ccc(C(=O)O)cc2)N3)cc1
[out] 20.2

[in] Which inhibition is reported for this compound? CCCOC(=O)/C(=C\C=C\c1ccccc1)NC(=O)c1ccccc1
[out] -6.3

[in] Which inhibition is reported for this compound? Cc1nc2sc(C(c3cccc(F)c3)N3CCN(C(=O)c4ccco4)CC3)c(O)n2n1 (stereo unspecified)
[out] 3.9

[in] Which inhibition is reported for this compound? CC(=O)Nc1ccc(S(=O)(=O)N2CCN(S(=O)(=O)N3CCOCC3)CC2)cc1
[out] -2.3

[in] Which inhibition is reported for this compound? CCCCOC(=O)/C(=C/C=C/c1ccccc1)NC(=O)c1ccccc1
[out] 7.4

[in] Which inhibition is reported for this compound? COc1ccc(C2C(Oc3ccccc3)C(=O)N2c2cc(C)ccc2C)cc1OC (stereo unspecified)
[out] -3.8

Attribution: PubChem BioAssay AID2073
